molecular target: PDHK2-R250A (Rattus norvegicus, UniProt Q64536, R258A); assay: ATP, ADP and DCA binding by quenching of intrinsic tryptophan fluorescence; settings: no fixed ligand, 25 °C
assay_metric: Kd (µM)
Report the figure in µM without appending any unit label.

Record Nc1ncnc2c1ncn2[C@@H]1O[C@H](COP(=O)(O)OP(=O)(O)OP(=O)(O)O)[C@@H](O)[C@H]1O [ATP] : what is its Kd with PDHK2-R250A (Rattus norvegicus, UniProt Q64536, R258A)? 80

----------
biological target: PDHK2-R250A (Rattus norvegicus, UniProt Q64536, R258A); experiment: ATP, ADP and DCA binding by quenching of intrinsic tryptophan fluorescence; settings: Kd, fixed ligand ADP (50 μM)
assay_metric: pKd
The quantity pKd is defined as the negative base-10 logarithm of the molar concentration.

Dear colleague, I am looking for the recorded pKd of the following compound: O=C(O)C(Cl)Cl [DCA, dichloroacetate] 3.79

----------
target: PDHK2-wt (Rattus norvegicus); test: ATP, ADP and DCA binding by quenching of intrinsic tryptophan fluorescence; settings: PDHK2-wt; fixed ligand DCA (0.5 mM)
assay_metric: Kd (nM)
Report the figure in nM without appending any unit label.

Dear colleague, I am looking for the recorded Kd of the following compound: Nc1ncnc2c1ncn2[C@@H]1O[C@H](COP(=O)(O)OP(=O)(O)O)[C@@H](O)[C@H]1O 2000

----------
molecular target: PDHK2-T302A (Rattus norvegicus, UniProt Q64536, T310A); assay: ATP, ADP and DCA binding by quenching of intrinsic tryptophan fluorescence; details: Kd, fixed ligand ADP (50 μM)
assay_metric: Kd (µM)
Report the figure in µM without appending any unit label.

Record O=C(O)C(Cl)Cl [DCA, dichloroacetate] : what is its Kd with PDHK2-T302A (Rattus norvegicus, UniProt Q64536, T310A)? 249

----------
target: wild-type PDHK2 (Rattus norvegicus)
pIC50: −log10 of the molar value.
assay_metric: pIC50

Record O=C(O)C(Cl)Cl [DCA, dichloroacetate] : what is its pIC50 with wild-type PDHK2 (Rattus norvegicus)? ~3.16

----------
molecular target: PDHK2-Y320F (Rattus norvegicus, UniProt Q64536, Y328F); assay: ATP, ADP and DCA binding by quenching of intrinsic tryptophan fluorescence; details: no fixed ligand, 25 °C
assay_metric: Kd (µM)
Report the figure in µM without appending any unit label.

| mol_smiles | test_target | assay_value |
| --- | --- | --- |
| Nc1ncnc2c1ncn2[C@@H]1O[C@H](COP(=O)(O)OP(=O)(O)O)[C@@H](O)[C@H]1O | PDHK2-Y320F (Rattus norvegicus, UniProt Q64536, Y328F) | 8.9 |

Here is the next item to consider.
Dear colleague, I am looking for the recorded Kd of the following molecule: Nc1ncnc2c1ncn2[C@@H]1O[C@H](COP(=O)(O)OP(=O)(O)OP(=O)(O)O)[C@@H](O)[C@H]1O 1.7

----------
target: PDHK2-Y320F (Rattus norvegicus, UniProt Q64536, Y328F); experiment: ATP, ADP and DCA binding by quenching of intrinsic tryptophan fluorescence; details: Kd, no fixed ligand, 25 °C
assay_metric: pKd
The quantity pKd is defined as the negative base-10 logarithm of the molar concentration.

Dear colleague, I am looking for the recorded pKd of the following compound: O=C(O)C(Cl)Cl [DCA, dichloroacetate] 3.53
